Source listed as the supplement of paper PMC8269313.

system: 4T1; assay: % inhibition of 4T1 cell number vs DMSO control; higher = stronger growth inhibition; settings: 1 µM; 3 days; substrate: lung fibroblast-derived matrix
Structures can show the parent of a compound that is named as a salt.
Item-by-item account of % inhibition of 4T1 cell number
// return numeric value only (unit: %, not printed)

Solved entries (count: 3):
Cc1ccc(NC2=CC(=O)c3sc(C)nc3C2=O)cc1 ... 99.5
COc1cc2ncnc(Nc3ccc(O)c(Br)c3)c2cc1OC ... -6.47
NC(=O)Nc1cc(-c2ccccc2)sc1C(N)=O ... 2.01

Could you tell me which % inhibition of 4T1 cell number is on file for O=Nc1c(-c2c(O)[nH]c3cc(Br)ccc23)[nH]c2ccccc12 ?
-2.79

Entry under review: COc1ccc(OC)c2c(=S)c3ccccc3[nH]c12 . Reported % inhibition of 4T1 cell number?
-13.6

Reported % inhibition of 4T1 cell number for CCCC(=O)Oc1ccc2[nH]c(C(=O)c3cc4ccccc4[nH]3)cc2c1 : what is it?
-6.16

Any idea what % inhibition of 4T1 cell number was measured for COc1ccc(CNC(=O)Nc2ncc([N+](=O)[O-])s2)cc1 ?
27.8

Please look up its % inhibition of 4T1 cell number: CN[C@@H]1C[C@H]2O[C@@](C)([C@@H]1OC)n1c3ccccc3c3c4c(c5c6ccccc6n2c5c31)C(=O)N[C@H]4O
14.1

Would you mind telling me what % inhibition of 4T1 cell number value was observed for N#Cc1c(NC(=O)c2cccc3ccccc23)sc2c1CCCC2 ?
2.5

For the compound O=S(=O)(NCCNC/C=C/c1ccc(Br)cc1)c1cccc2cnccc12 [H-89, Dihydrochloride] , what % inhibition of 4T1 cell number is on record?
-2.1

Fill in the blank: the reported % inhibition of 4T1 cell number of CCCCc1c(-c2ccc(OC)cc2)[nH]c2nccnc12 is ____.
-14.4

Consider the compound shown here: CCOC(=O)c1c(C)[nH]c(/C=C2\C(=O)Nc3ccccc32)c1C What is its recorded % inhibition of 4T1 cell number?
-12.5

For the compound shown here, NCCNc1ncc(C(N)=O)c(Nc2cccc(C(F)(F)F)c2)n1 , give the reported % inhibition of 4T1 cell number.
-1.24

# lookup: % inhibition of 4T1 cell number of Cc1ncc2ccccc2c1C#N
-13.2

Which % inhibition of 4T1 cell number value belongs to O=C(Nc1ccc(Cl)cc1)c1ccccc1NCc1ccncc1 ?
79.7

Value lookup for % inhibition of 4T1 cell number; key = N#CCCc1ccc2c(c1)-c1[nH]c3ccc([N+](=O)[O-])cc3c1CC(=O)N2
-1.58

I'd like to know its % inhibition of 4T1 cell number. The compound in question is Cc1cc(C=C2C(=O)C=CC2=O)cc(C)c1O
10.9

GET /values?readout=% inhibition of 4T1 cell number&item= O=C(O)c1ccc2c3c1cccc3c(=O)n1c3ccccc3nc21
-11.4

Look up % inhibition of 4T1 cell number: O=c1cc(N2CCNCC2)oc2c(-c3ccccc3)cccc12
-1.5

Which % inhibition of 4T1 cell number is reported for this compound? Fc1ccc(-c2nc3n(c2-c2ccncc2)CCS3)cc1
-11.4

I'd like to know its % inhibition of 4T1 cell number. The compound in question is Cn1c2ccccc2c2c3c(c4c5ccccc5n(CCC#N)c4c21)CNC3=O
-8.31

Report % inhibition of 4T1 cell number for O=C(c1cc2cc(O)ccc2[nH]1)c1cc2cc(O)ccc2[nH]1 please.
23.8

For NCCCn1cc(C2=C(c3c[nH]c4ccccc34)C(=O)NC2=O)c2ccccc21 [Bisindolylmaleimide III, Hydrochloride] , what is its reported % inhibition of 4T1 cell number?
12.7

May I ask what % inhibition of 4T1 cell number has been recorded for O=C(Nc1cc(C(F)(F)F)cc(C(F)(F)F)c1)c1cc(Cl)ccc1O ?
80.7
